Data provenance is patent US7074789B2.

Target: Lck (Homo sapiens)
Construct: Kinases are expressed as either kinase domains or full length constructs; made in house
Sequence (P06239 whole entry, species assumed, the tested form may be a part): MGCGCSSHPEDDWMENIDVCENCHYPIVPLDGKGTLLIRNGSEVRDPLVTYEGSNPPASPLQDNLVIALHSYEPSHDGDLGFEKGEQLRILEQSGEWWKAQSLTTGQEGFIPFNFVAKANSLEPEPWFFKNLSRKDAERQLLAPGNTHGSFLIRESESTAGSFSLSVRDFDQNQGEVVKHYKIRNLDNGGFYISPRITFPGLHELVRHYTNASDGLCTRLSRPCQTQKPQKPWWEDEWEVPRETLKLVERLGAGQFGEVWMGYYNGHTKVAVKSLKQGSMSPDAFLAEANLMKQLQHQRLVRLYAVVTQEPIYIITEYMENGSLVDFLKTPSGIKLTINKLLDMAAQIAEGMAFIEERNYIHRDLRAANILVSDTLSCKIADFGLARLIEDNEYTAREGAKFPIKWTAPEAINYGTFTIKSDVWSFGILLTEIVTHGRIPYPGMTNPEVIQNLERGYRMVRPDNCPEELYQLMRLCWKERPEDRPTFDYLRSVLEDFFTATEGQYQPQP
Experiment: Kinase inhibition assay (33P transfer), Lck
Format: biochemical
Conditions: read-out: Lck-1
pIC50: −log10 of the molar value.
experimental_readout: pIC50

1) COc1cc(Nc2ncnc(-n3c(Nc4cccc(F)c4)nc4ccccc43)n2)cc(OC)c1OC    5.31 to 6.09
2) COc1cc(Nc2ncnc(-n3ncc(-c4ccccc4)c3N)n2)cc(OC)c1OC    5.24 to 6.02
3) COc1cc(Nc2ncnc(-n3c(NC(C)c4ccc(F)cc4)nc4ccccc43)n2)cc(OC)c1OC (centres unmarked)    5.33 to 6.11
4) COc1ccc(Nc2ncnc(NCCCN3CCN(C)CC3)n2)cc1OC    < 4.94
5) c1ccc(CCNc2ncnc(Nc3ccc4c(cnn4Cc4ccccc4)c3)n2)cc1    < 4.97
6) COc1cc(Nc2ncnc(-n3c(OCc4ccccn4)nc4ccccc43)n2)cc(OC)c1OC    < 5.03
7) Cc1ccc2c(c1)CCCN2c1ncnc(Nc2ccc3ncsc3c2)n1    5.19 to 5.97
8) COc1cc(Nc2ncnc(-c3cccnc3NCc3ccccc3F)n2)cc(OC)c1OC    5.12 to 5.28
9) COc1cc(Nc2ncnc(-n3c(NCc4nccs4)nc4ccccc43)n2)cc(OC)c1OC    5.31 to 6.09
10) COc1ccc(Nc2ncnc(N3CCCc4ccc(C(F)(F)F)cc43)n2)cc1OC    5.25 to 6.03
11) CC(C)(C)c1cc(Nc2ncnc(Nc3ccc(CO)cc3)n2)[nH]n1    5.15 to 5.93
12) CC(=O)Nc1ccc(Nc2ncnc(N3CCCc4cc(C)ccc43)n2)cc1    5.19 to 5.97
13) COc1cc(Br)ccc1Nc1nc2ccccc2n1-c1ncnc(Nc2cc(OC)c(OC)c(OC)c2)n1    < 5.11
14) COc1cc(Nc2ncnc(-n3c(NCc4ncc[nH]4)nc4ccccc43)n2)cc(OC)c1OC    5.30 to 6.07
15) COc1cc(Nc2ncnc(-n3c(NCc4ccc(Cl)cc4)nc4ccccc43)n2)cc(OC)c1OC    < 5.06
16) CCC(O)CNc1ncnc(Nc2ccc(OC)c(OC)c2)n1 (centres unmarked)    < 4.85
17) Nc1nc2ccccc2n1-c1ncnc(Nc2ccc(Cl)cc2)n1    5.15 to 5.93
